# measuredOn: MjFH (class-I fumarate hydratase, α + β subunits) (Methanocaldococcus jannaschii, UniProt Q58034+Q58690)
# Sequence (Q58690 1-285): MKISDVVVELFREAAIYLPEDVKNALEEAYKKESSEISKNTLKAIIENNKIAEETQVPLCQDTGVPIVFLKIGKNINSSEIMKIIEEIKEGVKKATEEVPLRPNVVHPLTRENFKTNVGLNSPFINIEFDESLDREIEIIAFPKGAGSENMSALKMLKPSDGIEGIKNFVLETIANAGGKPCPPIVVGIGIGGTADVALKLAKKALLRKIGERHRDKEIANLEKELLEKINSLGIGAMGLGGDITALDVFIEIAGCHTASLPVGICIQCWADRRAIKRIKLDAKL
# Sequence (Q58034 1-195): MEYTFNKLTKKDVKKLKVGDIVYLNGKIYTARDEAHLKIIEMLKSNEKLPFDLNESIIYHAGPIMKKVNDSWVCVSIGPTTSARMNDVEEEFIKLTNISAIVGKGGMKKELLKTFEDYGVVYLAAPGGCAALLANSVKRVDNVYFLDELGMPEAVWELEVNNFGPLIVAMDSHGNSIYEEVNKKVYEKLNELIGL
# assay: fumarate formation at […] nm, inhibition kinetics
pKi: −log10 of the molar value.

>  <compound>
O=C(O)C(O)C(O)C(=O)O (stereo not drawn) [meso-tartrate]

>  <pKi>
3.79

$$$$

---

# measuredOn: EcL-TTD (L-tartrate dehydratase, L-TTDα + L-TTDβ) (Escherichia coli, UniProt P05847+P0AC35)
# Sequence (P05847 whole entry): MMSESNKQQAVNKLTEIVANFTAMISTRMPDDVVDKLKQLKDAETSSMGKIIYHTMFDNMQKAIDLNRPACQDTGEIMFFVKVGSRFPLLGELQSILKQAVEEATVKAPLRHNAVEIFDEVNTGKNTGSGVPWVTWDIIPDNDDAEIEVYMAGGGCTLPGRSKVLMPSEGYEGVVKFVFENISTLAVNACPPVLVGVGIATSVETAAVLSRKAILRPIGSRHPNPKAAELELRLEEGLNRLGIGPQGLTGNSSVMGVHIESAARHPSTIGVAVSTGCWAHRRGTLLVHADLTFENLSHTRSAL
# Sequence (P0AC35 whole entry): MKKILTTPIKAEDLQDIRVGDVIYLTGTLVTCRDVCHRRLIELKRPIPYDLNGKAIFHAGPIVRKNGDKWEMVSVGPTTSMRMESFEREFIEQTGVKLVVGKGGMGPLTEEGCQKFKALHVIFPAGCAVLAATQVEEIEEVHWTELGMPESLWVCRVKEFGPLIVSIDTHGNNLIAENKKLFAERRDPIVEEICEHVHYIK
# assay: coupled malate dehydrogenase/NADH assay at […] nm, inhibition kinetics
pKi: −log10 of the molar value.
readoutKind: pKi

>  <compound>
O=C(O)C[C@H](O)C(=O)O [S-malate]

>  <endpointValue>
3.58

$$$$
>  <compound>
O=C(O)C(O)C(O)C(=O)O (stereo not drawn) [meso-tartrate]

>  <endpointValue>
3.83

$$$$
